Hi there, I'd appreciate the recorded melting point for every entry that follows.

Q: Record request: melting point value, item Fc1cccc(F)c1Cn1c(-c2ccccc2)nc2ccccc21
A: 163 °C

Q: Same for O=C(O)[C@H](Cc1ccc(C(F)(F)F)cc1)[C@@H](O)c1ccccc1F (racemic)
A: 122 to 123 °C

Q: Do the same for CC(C)(C)OC(=O)N(C(=O)OC(C)(C)C)c1c(C#N)csc1C(=O)O please
A: 159 to 160 °C

Q: Try the compound CC(C)(O)c1ccc(-c2ccc(C(CC3CCOCC3)c3ccc(S(=O)(=O)C4CC4)cc3)[nH]2)nc1 (centres undefined)
A: 112 to 114 °C

Q: Another compound: c1cc(-c2cnc(-c3cccc(-c4cnco4)n3)o2)cc(-c2cnc(-c3cccc(-c4cnco4)n3)o2)c1
A: > 250 °C

Q: Same question, CC(=O)NC(C)CCC1CCN(c2nc3ccc(OCC4CC4)cc3o2)CC1 (centres undefined) this time
A: 131 to 132 °C

Q: Proceed to CCCC[C@H](NC(=O)[C@H](CC(C)C)NC(=O)c1cc2cccc(F)c2o1)C(=O)CSCc1ccco1
A: 102 to 103 °C

Q: Thanks! And CCC(=NOC)C1=C(O)CC(c2ccc(NS(C)(=O)=O)cc2)CC1=O (centres undefined) ?
A: 150 to 151 °C

Q: Please do the same for CC(C)(O)C(O)(C(F)(F)F)C(F)(F)F as well.
A: 48 °C

Q: Please do the same for c1cc(-n2ccnc2)cc(-n2cnc3cc(-c4ccoc4)cnc32)c1 as well.
A: 202 to 204 °C

Q: What do you have for CCOC(=O)c1cn(-c2nccs2)c2c(F)c(F)c(F)cc2c1=O ?
A: 172 to 174 °C

Q: # repeat for CN(C)CCOC1(O)C=CC2=NC(C(=O)N3CC(CCl)c4c3ccc3ncccc43)=CC2=C1 (centres undefined)
A: 209 to 215 °C

Q: Can you check NS(=O)(=O)NC(=O)CCCCC1CCSS1 (centres undefined) next?
A: 141 to 142 °C

Q: Could you do the same for COc1cc(Nc2c(C#N)cnc3cc(-c4ccc(CN5CCN(C)CC5)cc4)sc23)cc(OC)c1OC , please?
A: 189 to 191 °C

Q: Can you check N#Cc1ccc(C2NCCc3ccccc32)cc1 (racemic) next?
A: 114 to 115 °C

Q: # repeat for CCOc1cc2c(Nc3cc(OC)c(Cl)cc3Cl)c(C#N)cnc2cc1C#CCCO
A: 220 to 222 °C

Q: Can you check Cc1nn(Cc2ccccc2)c2c1c(=O)n(-c1ccccc1)c1ncccc21 next?
A: 274 to 276 °C

Q: Try COc1ccc(Br)cc1C(=O)C(Br)C(Br)c1cccc(Br)c1 (centres undefined) next.
A: 124 to 126 °C

Q: Moving on to the next compound: Cc1ccc(NCc2c(F)c(F)c(C(F)(F)F)c(F)c2F)cc1C(=O)O
A: 84 °C
